- run parameters: lymphatic transport of total TST derivatives, female SD rats, intraduodenal infusion
Quick reference: Fold increase (compared with control group dosed with TU) of the listed items.
Form entry: value (fold) — number only.

Guide cases for Fold increase (compared with control group dosed with TU), answers given:
CCCCCCCCCCC(=O)O[C@H]1CC[C@H]2[C@@H]3CCC4=CC(=O)CC[C@]4(C)[C@H]3CC[C@]12C [TU, testosterone undecanoate, reference compound]    1.0
CCCCCCCCCCCCCCCC(=O)OCC(COC(=O)CCCCCCCCCCCCCCC)OC(=O)C(C)CCCCCCCC(=O)O[C@H]1CC[C@H]2[C@@H]3CCC4=CC(=O)CC[C@]4(C)[C@H]3CC[C@]12C (some centres unmarked)    12.3
CCCCCCCCCCCCCCCC(=O)OCC(COC(=O)CCCCCCCCCCCCCCC)OC(=O)CCCCC(=O)O[C@H]1CC[C@H]2[C@@H]3CCC4=CC(=O)CC[C@]4(C)[C@H]3CC[C@]12C    9.0

Query: Bench note: what Fold increase (compared with control group dosed with TU) did CCCCCCCCCCCCCCCC(=O)OCC(COC(=O)CCCCCCCCCCCCCCC)OC(=O)CC(C)CC(=O)O[C@H]1CC[C@H]2[C@@H]3CCC4=CC(=O)CC[C@]4(C)[C@H]3CC[C@]12C (some centres unmarked) show?
Response: 14.9

Query: Bench note: what Fold increase (compared with control group dosed with TU) did CCCCCCCCCCCCCCCC(=O)OCC(COC(=O)CCCCCCCCCCCCCCC)OC(=O)CCCC(=O)O[C@H]1CC[C@H]2[C@@H]3CCC4=CC(=O)CC[C@]4(C)[C@H]3CC[C@]12C show?
Response: 7.7

---

- run parameters: anaesthetised, mesenteric lymph-duct cannulated female SD rats; intraduodenal infusion 0-2 h; cumulative over 8 h
Quick reference: Transport of total TST derivatives in lymph (% of dose) of the listed items.

CCCCCCCCCCCCCCCC(=O)OCC(COC(=O)CCCCCCCCCCCCCCC)OC(=O)CC(C)CC(=O)O[C@H]1CC[C@H]2[C@@H]3CCC4=CC(=O)CC[C@]4(C)[C@H]3CC[C@]12C (some centres unmarked)    28.0 ± 3.4 % of dose
CCCCCCCCCCCCCCCC(=O)OCC(COC(=O)CCCCCCCCCCCCCCC)OC(=O)CCCCC(=O)O[C@H]1CC[C@H]2[C@@H]3CCC4=CC(=O)CC[C@]4(C)[C@H]3CC[C@]12C    17.0 ± 1.6 % of dose
CCCCCCCCCCCCCCCC(=O)OCC(COC(=O)CCCCCCCCCCCCCCC)OC(=O)CCCC(=O)O[C@H]1CC[C@H]2[C@@H]3CCC4=CC(=O)CC[C@]4(C)[C@H]3CC[C@]12C    14.5 % of dose
CCCCCCCCCCCCCCCC(=O)OCC(COC(=O)CCCCCCCCCCCCCCC)OC(=O)C(C)CCCCCCCC(=O)O[C@H]1CC[C@H]2[C@@H]3CCC4=CC(=O)CC[C@]4(C)[C@H]3CC[C@]12C (some centres unmarked)    23.2 ± 2.3 % of dose

Next compound, please.
Query: Bench note: what Transport of total TST derivatives in lymph (% of dose) did CCCCCCCCCCC(=O)O[C@H]1CC[C@H]2[C@@H]3CCC4=CC(=O)CC[C@]4(C)[C@H]3CC[C@]12C [TU, testosterone undecanoate, reference compound] show?
Response: 1.9 ± 0.3 % of dose
